tested on: CCRF-CEM; conditions: XTT assay following 72 h inhibition; Table 1-3
readout-name: IC50

Prompt: IC50 lookup needed for `C/C1=C/C[C@@H](/C(C)=C/c2csc(C)n2)OC(=O)C[C@H](O)C(C)(C)C(=O)[C@H](C)[C@@H](O)[C@@H](C)/C=C/C1` , thanks.
Response: 0.9 nM

* * *

Catalogue of pIC50 readings, one per entry.
tested on: CCRF-CEM; conditions: read-out: IC50, CCRF-CEM; XTT assay following 72 h inhibition; Table 1-4
Hey, just a heads up that pIC50 is the negative log base 10 of the concentration in molar.

Sample records with pIC50:
- compound: "C/C1=C/CC(/C(C)=C/c2csc(C)n2)OC(=O)C[C@H](O)C(C)(C)C(=O)[C@H](C)[C@@H](O)[C@@H](C)CCC1 (some centres unmarked) [Compound 1, 12,13-desoxyepothilone B, reference compound]"
  observed-value: 8.44
- compound: "C/C(=C\\c1csc(C)n1)[C@@H]1C[C@@H]2O[C@]2(C)C/C=C/[C@H](C)[C@H](O)[C@@H](C)C(=O)C(C)(C)[C@@H](O)CC(=O)O1 [Compound 49, (E)-9,10-dehydroepothilone B]"
  observed-value: 9.64
- compound: "C/C(=C\\c1csc(C)n1)[C@@H]1C[C@H]2O[C@@]2(C)C/C=C/[C@H](C)[C@H](O)[C@@H](C)C(=O)C(C)(C)[C@@H](O)CC(=O)O1"
  observed-value: 7.87
- compound: "C/C(=C\\c1csc(C)n1)[C@@H]1C[C@@H]2O[C@]2(C)CCC[C@H](C)[C@H](O)[C@@H](C)C(=O)C(C)(C)[C@@H](O)CC(=O)O1 [Compound 51, Epothilone B, reference compound]"
  observed-value: 9.21

As a next step, examine the compound that follows.
Prompt: Please state recorded pIC50 (tested on CCRF-CEM) of `C/C(=C\c1csc(C)n1)[C@@H]1C[C@H]2O[C@@]2(C)CCC[C@H](C)[C@H](O)[C@@H](C)C(=O)C(C)(C)[C@@H](O)CC(=O)O1`
Response: 7.08
